Just for reference, patent US11738008B2 is where these values come from.

GluN2D (max) (%) values, listed per item
Target: rat GluN1/GluN2D (Rattus norvegicus, UniProt Q62645)
Sequence (Q62645 28-1323, other chains not shown): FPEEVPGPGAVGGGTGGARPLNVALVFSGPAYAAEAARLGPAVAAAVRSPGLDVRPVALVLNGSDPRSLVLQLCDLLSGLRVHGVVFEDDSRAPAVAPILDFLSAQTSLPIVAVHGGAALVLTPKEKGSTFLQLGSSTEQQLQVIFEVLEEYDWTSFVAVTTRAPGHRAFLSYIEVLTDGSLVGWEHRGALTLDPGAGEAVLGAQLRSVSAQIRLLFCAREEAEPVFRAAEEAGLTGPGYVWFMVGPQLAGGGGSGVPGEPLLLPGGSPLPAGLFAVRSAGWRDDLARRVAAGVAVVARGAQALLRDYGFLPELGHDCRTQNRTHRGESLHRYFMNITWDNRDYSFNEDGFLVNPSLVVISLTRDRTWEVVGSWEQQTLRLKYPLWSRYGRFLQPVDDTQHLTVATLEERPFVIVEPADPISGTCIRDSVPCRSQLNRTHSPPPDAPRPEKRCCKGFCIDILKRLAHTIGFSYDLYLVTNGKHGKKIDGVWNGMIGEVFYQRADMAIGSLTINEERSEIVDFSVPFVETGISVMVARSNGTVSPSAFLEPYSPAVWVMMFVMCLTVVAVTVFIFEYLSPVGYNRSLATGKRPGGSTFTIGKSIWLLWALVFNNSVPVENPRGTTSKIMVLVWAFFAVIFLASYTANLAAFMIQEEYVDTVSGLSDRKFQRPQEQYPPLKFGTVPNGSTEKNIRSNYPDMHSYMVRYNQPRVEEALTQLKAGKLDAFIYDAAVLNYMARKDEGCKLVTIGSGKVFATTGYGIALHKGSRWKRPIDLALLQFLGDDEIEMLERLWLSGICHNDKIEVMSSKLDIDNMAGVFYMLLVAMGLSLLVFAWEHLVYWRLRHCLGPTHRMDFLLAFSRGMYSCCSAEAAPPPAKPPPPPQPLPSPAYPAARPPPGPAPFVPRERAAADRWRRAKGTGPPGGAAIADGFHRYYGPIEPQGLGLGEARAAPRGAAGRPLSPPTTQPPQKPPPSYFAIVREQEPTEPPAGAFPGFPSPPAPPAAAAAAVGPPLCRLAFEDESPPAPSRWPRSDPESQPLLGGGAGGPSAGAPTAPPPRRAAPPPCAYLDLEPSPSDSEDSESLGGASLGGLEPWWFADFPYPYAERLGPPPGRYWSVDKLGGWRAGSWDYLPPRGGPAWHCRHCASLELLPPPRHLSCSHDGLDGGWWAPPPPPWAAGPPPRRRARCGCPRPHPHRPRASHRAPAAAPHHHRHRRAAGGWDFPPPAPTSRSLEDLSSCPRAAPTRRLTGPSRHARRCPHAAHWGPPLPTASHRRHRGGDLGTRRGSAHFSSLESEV
Experiment: Two-electrode voltage clamp recordings in Xenopus laevis oocytes, potentiation of GluN1/GluN2D
Assay type: cell-based

COc1ccc(OC[C@H]2c3cccn3CC(=O)N2Cc2cccc(C(F)(F)F)c2)cc1 [R-(+)-1180-447] : 332%
COc1ccc(OC[C@H]2c3cccn3CCN2C(=O)c2cccc(C(F)(F)F)c2)cc1 [R-(+)-1180-450] : 542%

Data point: COc1ccc(OCC2c3cc(OC)c(OC)cc3CCN2C(=O)c2cccc(Cl)c2)cc1 (stereo not drawn) ; GluN2D (max) (%) = 215%

* * *

Test: In vivo pharmacokinetics, plasma and brain, IP 10 mg/kg
Design: species or system C57BL/6 mice
Details: male, C57BL/6, brain and plasma; IP 10 mg/kg fed, mouse; read-out: Ratio_AUCLAST (Brain/plasma)
The molecules listed here are annotated with their Kp.
Lab note: record just the number, no unit beside it.

COc1ccc(OCC2c3cccn3CC(=O)N2Cc2cccc(C(F)(F)F)c2)cc1 (racemic) : 2

Quick note, Kp for COc1ccc(OCC2c3cccn3CCN2C(=O)c2cccc(Cl)c2)cc1 (centres unmarked) landed at 2

* * *

// values below are reported Tmax
Test: In vivo pharmacokinetics, plasma and brain, IP 10 mg/kg
Parameters: species or system C57BL/6 mice
Details: male, C57BL/6; Plasma IP 10 mg/kg fed, mouse, mean
Report the value in min with no unit label.

COc1ccc(OCC2c3cccn3CCN2C(=O)c2cccc(Cl)c2)cc1 (centres unmarked) : 18

Kindly consider the entry below.
Looking up COc1ccc(OCC2c3cccn3CC(=O)N2Cc2cccc(C(F)(F)F)c2)cc1 (racemic) , I found its Tmax recorded as 18

* * *

Biological target: rat GluN1/GluN2C (Rattus norvegicus, UniProt P35439+Q00961)
Sequence (Q00961 20-1237, other chains not shown): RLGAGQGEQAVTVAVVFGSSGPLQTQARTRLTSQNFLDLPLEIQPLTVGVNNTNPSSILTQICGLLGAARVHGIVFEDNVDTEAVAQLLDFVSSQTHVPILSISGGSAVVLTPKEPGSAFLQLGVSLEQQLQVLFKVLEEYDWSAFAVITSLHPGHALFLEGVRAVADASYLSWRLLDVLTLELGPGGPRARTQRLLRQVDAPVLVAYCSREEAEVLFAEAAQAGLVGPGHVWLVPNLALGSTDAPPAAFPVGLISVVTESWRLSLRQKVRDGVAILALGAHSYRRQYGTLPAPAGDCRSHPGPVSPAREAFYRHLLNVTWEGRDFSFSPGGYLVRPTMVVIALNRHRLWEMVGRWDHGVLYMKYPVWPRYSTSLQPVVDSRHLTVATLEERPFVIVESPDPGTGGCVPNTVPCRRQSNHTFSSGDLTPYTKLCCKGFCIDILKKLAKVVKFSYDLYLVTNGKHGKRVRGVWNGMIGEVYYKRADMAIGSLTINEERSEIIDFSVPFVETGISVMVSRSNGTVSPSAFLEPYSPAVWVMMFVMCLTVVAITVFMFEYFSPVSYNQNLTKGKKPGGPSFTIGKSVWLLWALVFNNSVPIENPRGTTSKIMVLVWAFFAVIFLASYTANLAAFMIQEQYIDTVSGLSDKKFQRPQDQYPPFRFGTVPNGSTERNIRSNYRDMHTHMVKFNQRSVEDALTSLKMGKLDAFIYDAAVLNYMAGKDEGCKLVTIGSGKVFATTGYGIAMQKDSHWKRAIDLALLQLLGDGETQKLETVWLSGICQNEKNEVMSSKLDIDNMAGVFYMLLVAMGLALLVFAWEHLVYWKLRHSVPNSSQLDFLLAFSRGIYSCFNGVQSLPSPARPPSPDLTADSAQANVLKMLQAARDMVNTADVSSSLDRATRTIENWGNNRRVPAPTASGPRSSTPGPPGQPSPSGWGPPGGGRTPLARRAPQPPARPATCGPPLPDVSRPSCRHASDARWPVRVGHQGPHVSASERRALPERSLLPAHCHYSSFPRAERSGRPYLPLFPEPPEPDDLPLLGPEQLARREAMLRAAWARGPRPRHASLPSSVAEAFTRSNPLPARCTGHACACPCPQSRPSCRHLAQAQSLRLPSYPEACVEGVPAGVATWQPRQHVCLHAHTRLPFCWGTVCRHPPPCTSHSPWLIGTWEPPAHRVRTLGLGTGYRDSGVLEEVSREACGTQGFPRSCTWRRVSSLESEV
Assay: Two-electrode voltage clamp recordings in Xenopus laevis oocytes, potentiation of GluN1/GluN2C; also: 30 µM glycine, 100 µM glutamate
Type: cell-based
Settings: read-out: GluN2C EC50
measuredAttribute: EC50

The cases that follow already have their EC50 on record.
COc1ccc(OCC2c3cccn3CCN2C(=O)c2cccc(Cl)c2)cc1 (stereo not shown) [1180-420] : 1.9 µM
COc1ccc(OCC2c3cnsc3CCN2C(=O)c2cccc(Cl)c2)cc1 (stereo not shown) [1180-411] : 11 µM
COc1ccc(OCC2c3occc3CCN2C(=O)c2cccc(Cl)c2)cc1 (stereo not shown) [1180-403] : 7.4 µM

# COc1ccc(OCC2c3sccc3CCN2C(=O)/C=C/C(F)(F)F)cc1 (stereo not shown) [1180-405] with rat GluN1/GluN2C (Rattus norvegicus, UniProt P35439+Q00961): EC50 is 13 µM

With rat GluN1/GluN2C (Rattus norvegicus, UniProt P35439+Q00961) as the test system, COc1ccc(OCC2c3sccc3CCN2C(=O)c2cccc(Cl)c2)cc1 (stereo not shown) [1180-400] showed EC50 of 3.8 µM

Recorded EC50 for COc1ccc(OCC2c3sccc3CCN2C(=O)c2ccc(Cl)s2)cc1 (stereo not shown) [1180-404] on rat GluN1/GluN2C (Rattus norvegicus, UniProt P35439+Q00961) was 5.1 µM

Entry COc1ccc(OCC2c3ccsc3CCN2C(=O)c2cccc(Cl)c2)cc1 (stereo not shown) [1180-401] , tested on rat GluN1/GluN2C (Rattus norvegicus, UniProt P35439+Q00961), has a reported EC50 of 3.6 µM
